# System: wild-type soybeans (line A3237)
# assay: Summary of first two greenhouse experiments, elongation of wild-type soybeans
# conditionSet: 0.0025 mg/ml solution (ethanol-water)
measurementKind: Elongation of wild-type soybeans

smilesstructure=C=C1C[C@]23C[C@@]1(O)CC[C@H]2[C@@]12C=C[C@H](O)[C@@](C)(C(=O)O1)[C@H]2[C@@H]3C(=O)O targetentity="wild-type soybeans (line A3237)" measurementkind="Elongation of wild-type soybeans" endpointresult=+
smilesstructure=C=C1C[C@]23C[C@@]1(O)CC[C@H]2[C@@]12CCC[C@@](C)(C(=O)O1)[C@H]2[C@@H]3C(=O)O targetentity="wild-type soybeans (line A3237)" measurementkind="Elongation of wild-type soybeans" endpointresult=+
smilesstructure=C=C1C[C@]23C[C@@]1(O)CC[C@H]2[C@@]12CC[C@H](O)[C@@](C)(C(=O)O1)[C@H]2[C@@H]3C(=O)O targetentity="wild-type soybeans (line A3237)" measurementkind="Elongation of wild-type soybeans" endpointresult=−
